biological target: T1, human MSLN-R3-his protein (human, UniProt Q13421 487-598); assay: ELISA, coated MSLN-R3
T1 construct: Region 3 of human MSLN, His-tagged; also called human MSLN-R3 protein; hMSLN-R3-his; not shown: His tag
T1 sequence (Q13421 495-606): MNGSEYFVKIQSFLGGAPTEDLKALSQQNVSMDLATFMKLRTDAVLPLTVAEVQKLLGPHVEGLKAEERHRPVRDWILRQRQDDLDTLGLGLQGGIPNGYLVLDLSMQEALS
observable: OD450 at 10 nM (OD450)
Number only, in OD450; omit the unit.

query: # lookup: OD450 at 10 nM of S009-F1.62.9 (antibody, human IgG1, kappa, V domains shown, Human-murine chimeric antibody, human IgG1/kappa constant regions) VH: EVQLQQSGADLVKPGASVKLSCTVFGLNFKDTFMHWVRQRPEQGLEWIGRIDPANDNSIYGPKFQDKATITADTSSNTAYLHLSSLTSEDTAVYYCLYFDNWGHGTTLTVSS VL: DIVMTQAASSEPVTPGESVSISCRSDKSLLHSNGHNYLYWFLQRPGQSPHLLIYRMSNLASGVPDRFSGSGSGTAFTLRISRVEAEDVGVYYCMQHLEYPLTFGAGTKLELKR
result: 2

query: # repeat for S009-F1.56.1 (antibody, human IgG1, kappa, V domains shown, Human-murine chimeric antibody, human IgG1/kappa constant regions) VH: EVQLQQSGAEVVKPGASVKLSCTASGFNIRHTYMHWVKQRPEQGLEWIGRIDPANGNTEYDPKFQGKATITADTSSNTAYLQLSSLTSEDTAVYYCARDGWYIDVWGAGTTVTVSS VL: DIVMSQSPSSLAVSVGEKVTMSCKSSQSLLYSNNQKNYLAWYQQKPGQSPKLLIYWASTRESGVPDRFTGSGSGTDFTLTISSVKAEDLAVYYCQRYYSYPWTFGGGTKLEIKR
result: 0.05

query: # repeat for S009-F1.35.24 (antibody, human IgG1, kappa, V domains shown, Human-murine chimeric antibody, human IgG1/kappa constant regions) VH: EVQLQQSEPELVKPGASVRISCKASGYSFTDYYMHWVKQSPENRLEWIGEINPSTGGTSYNPKFKDKATLTVDKSSSTAYMQLKSLTSEESAVYYCTRYHYYGSSSYVMDYWGQGTSVTVSS VL: QIVLTQSPAILSASPGERVTMTCSASSSVYHMHWFQQKSGTSPKRWVYDTSKLASGVPARFSGSGSGTSYSLTISSMEAEDAATYYCQHWRTNPLTFGAGTKLELKR
result: 0.05

query: # repeat for S009-F1.2.12 (antibody, human IgG1, kappa, V domains shown) VH: QVQLKQTGPGLVQPSQSLSITCTVSGFSLTNYAVHWVRQSPGKGLEWLGVIWSGGATDYNTVFISRLSISKDNSKSQVFFKVNSLQVDDTAIYYCARTGSGYAMDYWGQGTSVTVSS VL: DIVLTQSPATLSVTPGDRVSLSCRTSHNVNTYLHWYQQKSHESPRLLIKYASQSISEIPSRFSGSGSGTNFTLSINSVETEDFGMYFCHQTNRWPLTFGAGTKLELKR
result: 0.06

query: # repeat for S009-F1.25.10 (antibody, human IgG1, kappa, V domains shown, Human-murine chimeric antibody, human IgG1/kappa constant regions) VH: EVQLQQSGPELVKPGASLKISCKASGYSFTDYTMNWVKQSHGKNLEWIGLFNPYNGGISYNQKFKGKATLTVDKSSNTAYMELLSLTSDDSAVYFCARDGRGGFYAMDYWGQGTSVTVSS VL: DIQMTQTTSSLSASLGDRVTISCRASQDISIYLNWYQQKPDGPVKLLIYYTSRLHSGVPSRFSGSGSGTDFSLTISNLEQEDIATYFCQQGYTLPPWTFGGGTKLEIKR
result: 2.07

query: # repeat for S009-F1.59.1 (antibody, human IgG1, kappa, V domains shown, Human-murine chimeric antibody, human IgG1/kappa constant regions) VH: EVKLEGSGGGLVQPGGSMMLSCVATGFTFSSYWMNWVRQSPDRGLEWVAEIRLKSNGFAAFYAESVKGRFTISRDDSKSSVYLQMNNLRTEDTGIYYCTYFVHWGQGILVTVSE VL: DIVLTQSPTSLAVSLGQRATISCRTSESVEYFGTILIQWYQQKPGQPPKLLIFGASNVESGVPARFSGSGSGTDFSLNIHPVEEEDIAMYFCQQNRKVPYTFGGGTTLELKR
result: 2.05

query: # repeat for S009-F1.57.1 (antibody, human IgG1, kappa, V domains shown, Human-murine chimeric antibody, human IgG1/kappa constant regions) VH: EAQLQQSGAVFVKPGASVKLSCTASGFSSKDIFLHWVKQRPEQGLEWIGRIDPASDNTIYDPKFQDRATITSDRSSNTAYLQFSSLTSEDTAVYFCLYFDFWGQGTTLTVSS VL: DIVMTQATPSISVTPGESVSISCRSSESLLHSNGNTYLYWFLQRPGQSPQLLIYRMSNLASGVPDRFSVSGSGTAFTLRISRVEAEDVGVYYCMQHLEYPLTFGAGTKLELKR
result: 1.81
